target: T1, Recombinant Human DLL4 (R&D Systems Cat#1506-D4/CF) (human, UniProt Q9NR61 27-524); assay: ECL (MSD) binding assay, immobilised DLL4, 10 nM Fab;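 further: fab binding read as electrochemiluminescence via a TAG-labelled detection antibody, 1 h incubations at 20 °C, antigen signal compared with each well's blank, ratio of at least 4 scored as binder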
T1 construct: Bought recombinant human DLL4; also called delta-like protein 4; rHuman DLL4
Each item that follows carries a reported ECL Signal [10 nM Fab].
metric: ECL Signal [10 nM Fab]

{"columns": ["binder", "observed-measurement"],
 "data": [
  ["Fab VH5-51_IGHD5-18*01>3_IGHJ4*01 G100K/G104T (H:KT) & V3-4_IGLJ1*01 S96V (Fab, V domains shown, Fab format: CH1 with His6 and Flag tags, and lambda CL, from the vectors; also called G100K/G104T & S96V) VH: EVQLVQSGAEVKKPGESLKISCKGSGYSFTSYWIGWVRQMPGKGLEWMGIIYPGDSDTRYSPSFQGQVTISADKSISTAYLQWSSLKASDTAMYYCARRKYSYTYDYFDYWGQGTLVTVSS VL: QTVVTQEPSFSVSPGGTVTLTCGLSSGSVSTSYYPSWYQQTPGQAPRTLIYSTNTRSSGVPDRFSGSILGNKAALTITGAQADDESDYYCVLYMGVGISYVFGTGTKVTVL", 42300],
  ["Fab VH5-51_IGHD5-18*01>3_IGHJ4*01 G100K/G104T (H:KT) & V3-4_IGLJ1*01 S96P (Fab, V domains shown, Tested as a Fab made in E. coli; The heavy chain vector (plasmid A) adds CH1 with His6 and Flag tags; the lambda light chain vector (plasmid E) adds CL; also called G100K/G104T & S96P) VH: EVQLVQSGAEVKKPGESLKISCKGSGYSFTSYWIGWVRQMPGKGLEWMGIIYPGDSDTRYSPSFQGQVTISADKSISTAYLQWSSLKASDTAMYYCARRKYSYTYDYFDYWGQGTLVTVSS VL: QTVVTQEPSFSVSPGGTVTLTCGLSSGSVSTSYYPSWYQQTPGQAPRTLIYSTNTRSSGVPDRFSGSILGNKAALTITGAQADDESDYYCVLYMGPGISYVFGTGTKVTVL", 54000],
  ["Fab VH5-51_IGHD5-18*01>3_IGHJ4*01 G100K/G104T (H:KT) & V3-4_IGLJ1*01 S96M (Fab, V domains shown, Fab format: CH1 with His6 and Flag tags, and lambda CL, from the vectors; also called G100K/G104T & S96M) VH: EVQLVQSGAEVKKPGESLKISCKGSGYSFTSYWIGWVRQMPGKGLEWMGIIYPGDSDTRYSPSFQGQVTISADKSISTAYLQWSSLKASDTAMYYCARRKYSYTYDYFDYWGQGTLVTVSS VL: QTVVTQEPSFSVSPGGTVTLTCGLSSGSVSTSYYPSWYQQTPGQAPRTLIYSTNTRSSGVPDRFSGSILGNKAALTITGAQADDESDYYCVLYMGMGISYVFGTGTKVTVL", 61700],
  ["Fab VH5-51_IGHD5-18*01>3_IGHJ4*01 G100K/G104T (H:KT) & V3-4_IGLJ1*01 S96E (Fab, V domains shown, Fab format: CH1 with His6 and Flag tags, and lambda CL, from the vectors; also called G100K/G104T & S96E) VH: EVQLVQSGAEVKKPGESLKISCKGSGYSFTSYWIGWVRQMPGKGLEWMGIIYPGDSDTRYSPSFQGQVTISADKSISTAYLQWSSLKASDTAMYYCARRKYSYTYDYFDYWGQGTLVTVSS VL: QTVVTQEPSFSVSPGGTVTLTCGLSSGSVSTSYYPSWYQQTPGQAPRTLIYSTNTRSSGVPDRFSGSILGNKAALTITGAQADDESDYYCVLYMGEGISYVFGTGTKVTVL", 57000],
  ["Fab VH5-51_IGHD5-18*01>3_IGHJ4*01 G100K/G104T (H:KT) & V3-4_IGLJ1*01 S96L (Fab, V domains shown, Fab format: CH1 with His6 and Flag tags, and lambda CL, from the vectors; also called G100K/G104T & S96L) VH: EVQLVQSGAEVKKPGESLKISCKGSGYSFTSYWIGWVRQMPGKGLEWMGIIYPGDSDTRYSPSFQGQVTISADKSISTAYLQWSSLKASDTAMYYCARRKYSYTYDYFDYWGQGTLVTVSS VL: QTVVTQEPSFSVSPGGTVTLTCGLSSGSVSTSYYPSWYQQTPGQAPRTLIYSTNTRSSGVPDRFSGSILGNKAALTITGAQADDESDYYCVLYMGLGISYVFGTGTKVTVL", 40000]
]}

Numbers sourced from patent US20120316071A1.
